# tested system: human APJ receptor (Homo sapiens, UniProt P35414)
# Construct: expressed in transfected cells; host or cells: HEK293
# Sequence (P35414 1-380): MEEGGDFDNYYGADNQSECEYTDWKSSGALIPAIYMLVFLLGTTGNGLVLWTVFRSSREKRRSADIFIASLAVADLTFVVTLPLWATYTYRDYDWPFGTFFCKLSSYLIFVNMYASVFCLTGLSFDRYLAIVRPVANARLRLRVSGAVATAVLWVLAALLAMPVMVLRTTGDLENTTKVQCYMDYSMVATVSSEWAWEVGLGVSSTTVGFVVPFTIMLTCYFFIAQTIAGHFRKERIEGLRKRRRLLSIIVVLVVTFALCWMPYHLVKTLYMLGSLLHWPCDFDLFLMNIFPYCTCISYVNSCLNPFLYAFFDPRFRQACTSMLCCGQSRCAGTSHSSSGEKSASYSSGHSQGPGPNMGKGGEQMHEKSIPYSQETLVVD
# test details: Intracellular cAMP Accumulation Assay (APJ hcAMP, HTRF)
# Assay type: cell-based
# measurement context: human APJ, intracellular cAMP accumulation; read-out: hAPJ cAMP EC50 Potency range
pEC50: −log10 of the molar value.
metric name: pEC50

A selection of reference data follows.
>  <compound>
CC[C@@H](c1cc(F)cc(F)c1)n1c(-c2nc(C)cs2)nc(=O)c(C(=O)N2CCC(c3ccccc3OC)C2)c1O (single isomer, unassigned)

>  <pEC50>
8.00 to 11.00

$$$$
>  <compound>
CCCCc1nc(=O)c(C(=O)N2CC[C@H](c3ccccc3)C2)c(O)n1[C@@H](COC)c1ccccc1

>  <pEC50>
8.00 to 11.00

$$$$
>  <compound>
CCCCc1nc(=O)c(C(=O)N2CCC(c3ccncc3)CC2)c(O)n1-c1c(OC)cccc1OC

>  <pEC50>
8.00 to 11.00

$$$$
>  <compound>
COc1cccc(OC)c1-n1c(COC(C)C)nc(=O)c(C(=O)N2CCC(c3ccccc3C(F)(F)F)C2)c1O (single isomer, unassigned) [Example 101]

>  <pEC50>
8.00 to 11.00

$$$$
>  <compound>
CC[C@@H](c1cc(F)cc(F)c1)n1c(-c2ccn(CC)n2)nc(=O)c(C(=O)N2CCC(c3ncc(Cl)cc3F)C2)c1O (single isomer, unassigned)

>  <pEC50>
8.00 to 11.00

$$$$
>  <compound>
COc1cccc(OC)c1-n1c(CC2CC2)nc(=O)c(C(=O)N2CC[C@@H](c3ccccc3)C2)c1O

>  <pEC50>
8.00 to 11.00

$$$$

## Task Request the reported pEC50 associated with `CCCCc1nc(=O)c(C(=O)N2CC[C@H](c3ccccc3)C2)c(O)n1C(C)C`
## Result 7.00 to 8.00

## Task Would you kindly repeat that for `CCCCc1nc(=O)c(C(=O)N2CC[C@@H](c3ccccc3)C2)c(O)n1[C@@H](CC)c1ccccc1` ?
## Result 8.00 to 11.00

## Task Item: COc1ccccc1C1CCN(C(=O)c2c(O)n(-c3c(OC)cccc3OC)c(COC(C)C)nc2=O)C1 (single isomer, unassigned) [Example 160]
## Result 8.00 to 11.00

====

# tested system: human APJ receptor (Homo sapiens)
# Construct: expressed in transfected cells; host or cells: HEK293
# test details: Intracellular cAMP Accumulation Assay (APJ hcAMP, HTRF)
# Assay type: cell-based
# measurement context: human APJ, intracellular cAMP accumulation; read-out: hAPJ cAMP EC50 Potency range
pEC50: −log10 of the molar value.
Each entry below lists one item and its recorded pEC50 value.

Worked examples follow.
>  <molecule>
CCCCc1nc(=O)c(C(=O)N2CCC(c3ccc(F)cc3)CC2)c(O)n1-c1c(OC)cccc1OC

>  <pEC50>
7.00 to 8.00

$$$$
>  <molecule>
CCOCc1nc(=O)c(C(=O)N2CCC(c3ccccn3)C2)c(O)n1-c1c(OC)cccc1OC (single isomer, unassigned) [Example 55]

>  <pEC50>
8.00 to 11.00

$$$$

Next up:
## Task Entry COc1cccc(OC)c1-n1c(COC2CC2)nc(=O)c(C(=O)N2CCC(c3ccccc3C)C2)c1O (single isomer, unassigned) has what pEC50?
## Result 8.00 to 11.00

====

# tested system: human APJ receptor (Homo sapiens, UniProt P35414)
# Construct: expressed in transfected cells; host or cells: HEK293
# Sequence (P35414 1-380): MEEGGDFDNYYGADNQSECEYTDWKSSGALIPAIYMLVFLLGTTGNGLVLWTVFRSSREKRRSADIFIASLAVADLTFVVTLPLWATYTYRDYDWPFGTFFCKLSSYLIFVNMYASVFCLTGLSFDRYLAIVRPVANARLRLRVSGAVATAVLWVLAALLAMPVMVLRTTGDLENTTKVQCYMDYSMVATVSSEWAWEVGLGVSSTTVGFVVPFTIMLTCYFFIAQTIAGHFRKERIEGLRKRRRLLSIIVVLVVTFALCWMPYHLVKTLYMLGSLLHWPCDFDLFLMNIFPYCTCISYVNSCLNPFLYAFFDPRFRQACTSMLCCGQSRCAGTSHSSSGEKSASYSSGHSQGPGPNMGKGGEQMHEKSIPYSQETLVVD
# test details: Intracellular cAMP Accumulation Assay (APJ hcAMP, HTRF)
# Format: cell-based
# measurement context: human APJ, intracellular cAMP accumulation; read-out: hAPJ cAMP EC50 Potency range
metric name: EC50

>  <molecule>
COc1cccc(OC)c1-n1c(COC(C)C)nc(=O)c(C(=O)N2CCC(c3ccc(C#N)cc3)C2)c1O (single isomer, unassigned) [Example 108]

>  <EC50>
0.01 to 10 nM

$$$$
>  <molecule>
CCCCc1nc(=O)c(C(=O)N2CC[C@H](OCc3ccccn3)C2)c(O)n1-c1c(OC)cccc1OC

>  <EC50>
0.01 to 10 nM

$$$$
>  <molecule>
COc1cccc(OC)c1-n1c(COC(C)C)nc(=O)c(C(=O)N2CC(c3ccc(C)cc3)C2)c1O

>  <EC50>
10 to 100 nM

$$$$

## Task Which EC50 is reported for this molecule? CC[C@@H](c1cc(F)cc(F)c1)n1c(-c2nc(C)cs2)nc(=O)c(C(=O)N2CCC(c3ncccc3F)C2)c1O (single isomer, unassigned)
## Result 0.01 to 10 nM

====

# tested system: human APJ receptor (Homo sapiens)
# Construct: expressed in transfected cells; host or cells: HEK293
# test details: Intracellular cAMP Accumulation Assay (APJ hcAMP, HTRF)
# Assay type: cell-based
# measurement context: human APJ, cAMP accumulation; potency range class; read-out: hAPJ cAMP EC50 Potency range
# Experimental: Intracellular cAMP Accumulation Assay HEK293 cells stably expressing human APJ receptor were used to assess the activity of compounds. Cultured cells were detached and resuspended in the cAMP Homogeneous Time-Resolved Fluorescence (HTRF) assay buffer (Cisbio cat; #62AM4PEJ). […] The fluorescence emission ratio was measured using fluorometer. […] The biological activity of the exemplified compounds of this invention determined by the assay described above is shown at the end of each example.
pEC50: −log10 of the molar value.
Reported pEC50 values are given for each entry in this list.

Example entries begin here.
>  <molecule>
COc1cccc(-c2nc(=O)c(C(=O)N3CCC(c4ncccc4F)C3)c(O)n2-c2c(OC)cccc2OC)c1 (single isomer, unassigned)

>  <endpoint result>
8.00 to 11.00

$$$$
>  <molecule>
CCc1cccc(CC)c1-n1c(COC(C)C)nc(=O)c(C(=O)N2CCC(c3ccncc3)C2)c1O (single isomer, unassigned)

>  <endpoint result>
7.00 to 8.00

$$$$
>  <molecule>
CCCCc1nc(O)c(C(=O)N2CCC(c3ncc(Cl)cc3F)C2)c(=O)n1[C@@H](COC)c1ccccc1 (single isomer, unassigned)

>  <endpoint result>
8.00 to 11.00

$$$$

Let us examine a further case.
## Task Looking for the measured pEC50 of `COc1cccc(OC)c1-n1c(CC2CC2)nc(=O)c(C(=O)N2CCC(c3ccc(Cl)nc3)CC2)c1O` , can you help?
## Result 7.00 to 8.00

====

Known EC50 of a selection of compounds
# tested system: human APJ receptor (Homo sapiens, UniProt P35414)
# Construct: expressed in transfected cells; host or cells: HEK293
# test details: Intracellular cAMP Accumulation Assay (APJ hcAMP, HTRF)
# Type: cell-based
# measurement context: human APJ, intracellular cAMP accumulation; read-out: hAPJ cAMP EC50 Potency range

## Task Record request: EC50 value, item COc1cccc(OC)c1-n1c(COC(C)(C)C)nc(=O)c(C(=O)N2CCC(c3ccccc3F)C2)c1O (single isomer, unassigned) [Example 50]
## Result 0.01 to 10 nM

## Task What about this compound? CC[C@@H](c1cc(F)cc(F)c1)n1c(-c2ccn(CC)n2)nc(=O)c(C(=O)N2CCC(c3ncccc3F)C2)c1O (single isomer, unassigned) [Example 186]
## Result 0.01 to 10 nM

## Task Next entry: CCCCc1nc(=O)c(C(=O)N2CC[C@@H](c3ccccc3)C2)c(O)n1[C@@H](C)c1cccc(OC)c1 [Example 120]
## Result 0.01 to 10 nM

## Task Next compound: COc1cccc(OC)c1-n1c(CCC2CC2)nc(=O)c(C(=O)N2CC=C(c3ccc(Cl)cn3)C2)c1O [Example 172]
## Result 0.01 to 10 nM

## Task Please do the same for CCc1cccc(CC)c1-n1c(COC(C)C)nc(=O)c(C(=O)N2CC[C@H](c3ccccc3)C2)c1O [Example 17] as well.
## Result 0.01 to 10 nM

## Task Same question, CCCCc1nc(=O)c(C(=O)N2CC[C@@H](c3ccccc3)C2)c(O)n1[C@@H](CCC)c1ccccc1 [Example 153] this time
## Result 10 to 100 nM

## Task Then CC[C@@H](c1cc(F)cc(F)c1)n1c(-c2cnn(C)c2)nc(=O)c(C(=O)N2CCC(c3ccc(Cl)cn3)C2)c1O (single isomer, unassigned) [Example 187] ?
## Result 0.01 to 10 nM

## Task Thanks! And CC[C@@H](c1cc(F)cc(F)c1)n1c(-c2cnn(C)c2)nc(=O)c(C(=O)N2CCC(c3ccccc3OC)C2)c1O (single isomer, unassigned) [Example 198] ?
## Result 0.01 to 10 nM

## Task And the next one, COc1cccc(OC)c1-n1c(COC(C)C)nc(=O)c(C(=O)N2CCC(c3ccccc3C(F)(F)F)C2)c1O (single isomer, unassigned) [Example 99] ?
## Result 0.01 to 10 nM

## Task Would you kindly repeat that for CCCCc1nc(=O)c(C(=O)N2CC[C@@H](NC(=O)OCc3ccccc3)C2)c(O)n1-c1c(OC)cccc1OC [Example 62] ?
## Result 10 to 100 nM
